Hello, the source for this data is patent US20230416256A1, in case you need it.

Target: recombinant human NF-kappaB-inducing kinase (NIK/MAP3K14) (Homo sapiens)
Assay: Inhibition of auto-phosphorylation of recombinant human NIK/MAP3K14 activity (AlphaScreen)
Details: GST-tagged NIK/MAP3K14 1 nM, 5 μM ATP, 2 h at 25° C.; average of values obtained
pIC50: −log10 of the molar value.
parameter: pIC50

Consider the worked cases shown below.
molecule="O[C@@]1(c2cccc(-c3csc(-c4c[nH]c5nccnc45)n3)c2)COc2cccnc21 [Example 86]" parameter=pIC50 measured="< 6.30"
molecule="O[C@@]1(c2cccc(-c3csc(-c4c[nH]c5ncc(Cl)cc45)n3)c2)CCn2ccnc21 [Example 27]" parameter=pIC50 measured="≥ 7.00"
molecule="Cc1cnc2[nH]cc(-c3nc(-c4cccc([C@]5(O)CCN(C)C5=O)c4)cs3)c2c1 [Example 7]" parameter=pIC50 measured="≥ 7.00"
molecule="CN1CC[C@@](O)(c2cccc(-c3csc(-c4n[nH]c5ncccc45)n3)c2)C1=O [Example 100]" parameter=pIC50 measured="< 6.30"
molecule="O=C1Nc2cccnc2[C@]1(O)c1cccc(-c2csc(-c3c[nH]c4ncccc34)n2)c1 (single isomer, unassigned) [Example 89]" parameter=pIC50 measured="< 6.30"
molecule="CN1CC[C@@](O)(c2cccc(-c3nc(-c4c[nH]c5ncccc45)sc3CO)c2)C1=O [Example 50]" parameter=pIC50 measured="≥ 7.00"
molecule="O[C@]1(c2cccc(-c3csc(-c4c[nH]c5nccnc45)n3)c2)CCn2ccnc21 [Example 42]" parameter=pIC50 measured="6.30 to 7.00"
molecule="O[C@]1(c2cccc(-c3csc(-c4c[nH]c5ncccc45)n3)c2)CCc2scnc21 (single isomer, unassigned) [Example 31]" parameter=pIC50 measured="6.30 to 7.00"

Please list pIC50 recorded for the molecule C[C@](O)(c1cccc(-c2csc(-c3c[nH]c4ncccc34)n2)c1)c1nccs1 (single isomer, unassigned) [Example 64]
< 6.30

====

Reported IC50 is given for each of the following compounds.
Test system: p-IKKα levels in L363 (NIK translocated multiple myeloma) cells
Assay: Effect of compounds on p-IKKα levels in L363 cells (AlphaLISA SureFire Ultra)
Type: cell-based, human
Settings: Homo sapiens, L-363, 6 h, 250 ng/ml BAFF stimulated, 10 μM MG132, 6 h, average of values obtained, read-out: Assay 2 IC50

compound="C[C@](O)(c1cccc(-c2csc(-c3c[nH]c4ncccc34)n2)c1)c1nccs1 (single isomer, unassigned) [Example 64]" measured="> 500 nM"
compound="O[C@@]1(c2cccc(-c3nc(-c4c[nH]c5nccnc45)cs3)c2)CCn2ccnc21 [Example 11]" measured="≤ 100 nM"
compound="O[C@@]1(c2cccc(-c3csc(-c4c[nH]c5ncccc45)n3)c2)CCn2ccnc21 [Example 10]" measured="≤ 100 nM"
compound="O[C@]1(c2cccc(-c3csc(-c4c[nH]c5ncccc45)n3)c2)CCc2scnc21 (single isomer, unassigned) [Example 31]" measured="> 500 nM"
compound="O[C@@]1(c2cccc(-c3csc(-c4c[nH]c5nccnc45)n3)c2)C=Cn2ccnc21 [Example 13]" measured="> 500 nM"
compound="Cn1ccnc1[C@@](C)(O)c1cccc(-c2csc(-c3c[nH]c4ncccc34)n2)c1 (single isomer, unassigned) [Example 79]" measured="> 500 nM"
compound="O[C@@H]1C[C@](O)(c2cccc(-c3csc(-c4c[nH]c5ncccc45)n3)c2)c2ncccc21 (single isomer, unassigned) [Example 104]" measured="> 500 nM"
compound="N#Cc1cnc2[nH]cc(-c3nc(-c4cccc([C@]5(O)CCn6ccnc65)c4)cs3)c2c1 [Example 26]" measured="≤ 100 nM"

Look up and state reported IC50 for C[C@](O)(c1cccc(-c2csc(-c3c[nH]c4ncccc34)n2)c1)c1ccccn1 (single isomer, unassigned) [Example 61]
> 500 nM

====

Examples of molecules with documented IC50 follow.
Target: recombinant human NF-kappaB-inducing kinase (NIK/MAP3K14) (Homo sapiens)
Experiment: Inhibition of auto-phosphorylation of recombinant human NIK/MAP3K14 activity (AlphaScreen)
Conditions: GST-tagged NIK/MAP3K14 1 nM, 5 μM ATP, 2 h at 25° C.; average of values obtained

molecule="C[C@](O)(c1cccc(-c2csc(-c3c[nH]c4ncccc34)n2)c1)c1ccccn1 (single isomer, unassigned)" measured="> 500 nM"

Give the reported value of IC50 for this record: O[C@@]1(c2cccc(-c3nc(-c4c[nH]c5ncccc45)cs3)c2)CCn2ccnc21
≤ 100 nM

# return recorded IC50 for entry O[C@@]1(c2cccc(-c3csc(-c4c[nH]c5ncccc45)n3)c2)CCc2cccnc21 (single isomer, unassigned)
≤ 100 nM

Identify measured IC50 corresponding to O[C@@]1(c2cccc(-c3csc(-c4c[nH]c5ncccc45)n3)c2)CCCn2ccnc21 (single isomer, unassigned)
≤ 100 nM

Return IC50 for the following molecule: O[C@]1(c2cccc(-c3csc(-c4c[nH]c5ncccc45)n3)c2)CCCn2ccnc21 (single isomer, unassigned)
> 500 nM

Look up and report measured IC50 for this entry: Cc1ccc2c(-c3nc(-c4cccc([C@]5(O)CCN(C)C5=O)c4)cs3)c[nH]c2n1
≤ 100 nM

Output measured IC50 for this item: CN1CC[C@@](O)(c2cccc(-c3cnc(-c4c[nH]c5ncccc45)s3)c2)C1=O (single isomer, unassigned)
100 to 500 nM

====

Target: recombinant human NF-kappaB-inducing kinase (NIK/MAP3K14) (Homo sapiens)
Assay: Inhibition of auto-phosphorylation of recombinant human NIK/MAP3K14 activity (AlphaScreen)
Conditions: GST-tagged NIK/MAP3K14 1 nM, 5 μM ATP, 2 h at 25° C.; average of values obtained
pIC50: −log10 of the molar value.
parameter: pIC50

Example cases with answers are listed next.
compound="CN1CC[C@@](O)(c2cccc(-c3nc(-c4c[nH]c5ncccc45)sc3F)c2)C1=O (single isomer, unassigned) [Example 99]" measured="≥ 7.00"
compound="CN1CC[C@@](O)(c2cccc(-c3csc(-c4c[nH]c5ncc(Cl)c(F)c45)n3)c2)C1=O [Example 95]" measured="≥ 7.00"
compound="O[C@@H]1C[C@](O)(c2cccc(-c3csc(-c4c[nH]c5ncccc45)n3)c2)c2ncccc21 (single isomer, unassigned) [Example 104]" measured="< 6.30"

Alright, here's another compound for you.
Give pIC50 for CN1CC[C@@](O)(c2cccc(-c3csc(-c4c[nH]c5ncc(C#N)cc45)n3)c2)C1=O [Example 72]
≥ 7.00

====

Target: recombinant human NF-kappaB-inducing kinase (NIK/MAP3K14) (Homo sapiens)
Test: Inhibition of auto-phosphorylation of recombinant human NIK/MAP3K14 activity (AlphaScreen)
Details: GST-tagged NIK/MAP3K14 1 nM, 5 μM ATP, 2 h at 25° C.; average of values obtained
parameter: IC50

Consider the reported IC50 for these compounds:
compound=CN1CC[C@@](O)(c2cccc(-c3nc(-c4c(F)cnc5[nH]ccc45)cs3)c2)C1=O test_system="recombinant human NF-kappaB-inducing kinase (NIK/MAP3K14) (Homo sapiens)" parameter=IC50 measured="> 500 nM"
compound=O[C@]1(c2cccc(-c3nc(-c4c[nH]c5ncccc45)cs3)c2)CCc2scnc21 test_system="recombinant human NF-kappaB-inducing kinase (NIK/MAP3K14) (Homo sapiens)" parameter=IC50 measured="100 to 500 nM"
compound="O[C@]1(c2cccc(-c3csc(-c4c[nH]c5ncccc45)n3)c2)CCc2cccnc21 (single isomer, unassigned)" test_system="recombinant human NF-kappaB-inducing kinase (NIK/MAP3K14) (Homo sapiens)" parameter=IC50 measured="> 500 nM"
compound=Cc1sc(-c2c[nH]c3nccnc23)nc1-c1cccc([C@]2(O)CCN(C)C2=O)c1 test_system="recombinant human NF-kappaB-inducing kinase (NIK/MAP3K14) (Homo sapiens)" parameter=IC50 measured="≤ 100 nM"
compound=CN1CCC[C@](O)(c2cccc(-c3csc(-c4c[nH]c5nccnc45)n3)c2)C1=O test_system="recombinant human NF-kappaB-inducing kinase (NIK/MAP3K14) (Homo sapiens)" parameter=IC50 measured="> 500 nM"

Report IC50, nothing else, for this compound: O[C@@]1(c2cccc(-c3csc(-c4c[nH]c5ncccc45)n3)c2)COc2cccnc21 [Example 85]
> 500 nM

====

Molecular target: recombinant human NF-kappaB-inducing kinase (NIK/MAP3K14) (Homo sapiens, UniProt Q99558)
Sequence (Q99558 whole entry): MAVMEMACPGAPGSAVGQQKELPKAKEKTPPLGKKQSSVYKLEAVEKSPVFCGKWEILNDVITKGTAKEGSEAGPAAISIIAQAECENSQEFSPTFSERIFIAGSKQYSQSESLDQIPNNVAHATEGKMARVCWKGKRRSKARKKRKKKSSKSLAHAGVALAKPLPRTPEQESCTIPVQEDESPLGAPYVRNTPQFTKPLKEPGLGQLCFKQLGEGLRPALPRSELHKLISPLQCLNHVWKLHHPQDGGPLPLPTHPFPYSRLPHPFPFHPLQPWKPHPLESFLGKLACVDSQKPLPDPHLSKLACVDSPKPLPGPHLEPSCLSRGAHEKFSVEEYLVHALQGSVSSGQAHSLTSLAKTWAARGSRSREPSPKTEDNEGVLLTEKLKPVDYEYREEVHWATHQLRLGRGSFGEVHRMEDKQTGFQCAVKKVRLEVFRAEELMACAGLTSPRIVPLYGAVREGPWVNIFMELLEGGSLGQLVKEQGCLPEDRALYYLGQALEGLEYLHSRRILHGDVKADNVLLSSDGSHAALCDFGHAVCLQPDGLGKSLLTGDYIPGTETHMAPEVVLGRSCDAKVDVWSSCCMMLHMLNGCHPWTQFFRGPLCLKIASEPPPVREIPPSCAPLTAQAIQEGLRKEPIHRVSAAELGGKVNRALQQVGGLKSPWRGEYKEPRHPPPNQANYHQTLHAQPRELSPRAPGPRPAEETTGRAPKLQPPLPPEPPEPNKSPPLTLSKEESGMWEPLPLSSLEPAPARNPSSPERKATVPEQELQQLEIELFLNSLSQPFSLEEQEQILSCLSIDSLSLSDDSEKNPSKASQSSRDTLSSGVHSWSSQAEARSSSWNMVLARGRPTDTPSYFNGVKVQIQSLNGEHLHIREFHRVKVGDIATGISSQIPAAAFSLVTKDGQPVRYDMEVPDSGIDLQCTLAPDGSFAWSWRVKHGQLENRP
Experiment: Inhibition of auto-phosphorylation of recombinant human NIK/MAP3K14 activity (AlphaScreen)
Conditions: GST-tagged NIK/MAP3K14 1 nM, 5 μM ATP, 2 h at 25° C.; average of values obtained
parameter: IC50

Provide only the value of recorded IC50 for CN1CC[C@@](O)(c2cccc(-c3coc(-c4c[nH]c5ncccc45)c3)c2)C1=O [Example 93]
≤ 100 nM

====

Molecular target: recombinant human NF-kappaB-inducing kinase (NIK/MAP3K14) (Homo sapiens, UniProt Q99558)
Assay: Inhibition of auto-phosphorylation of recombinant human NIK/MAP3K14 activity (AlphaScreen)
Settings: GST-tagged NIK/MAP3K14 1 nM, 5 μM ATP, 2 h at 25° C.; average of values obtained
parameter: IC50

compound=CN1CC[C@@](O)(c2cccc(-c3cc(-c4c[nH]c5ncccc45)[nH]n3)c2)C1=O test_system="recombinant human NF-kappaB-inducing kinase (NIK/MAP3K14) (Homo sapiens, UniProt Q99558)" parameter=IC50 measured="100 to 500 nM"
compound=CN1CC[C@@](O)(c2cccc(-c3nc(-c4c[nH]c5ncccc45)cs3)c2)C1=O test_system="recombinant human NF-kappaB-inducing kinase (NIK/MAP3K14) (Homo sapiens, UniProt Q99558)" parameter=IC50 measured="≤ 100 nM"
compound=O[C@@]1(c2cccc(-c3coc(-c4c[nH]c5ncccc45)c3)c2)CCn2ccnc21 test_system="recombinant human NF-kappaB-inducing kinase (NIK/MAP3K14) (Homo sapiens, UniProt Q99558)" parameter=IC50 measured="≤ 100 nM"
compound="C[C@@](O)(c1cccc(-c2csc(-c3c[nH]c4ncccc34)n2)c1)c1nccs1 (single isomer, unassigned)" test_system="recombinant human NF-kappaB-inducing kinase (NIK/MAP3K14) (Homo sapiens, UniProt Q99558)" parameter=IC50 measured="≤ 100 nM"
compound="O[C@]1(c2cccc(-c3nc(-c4c[nH]c5ncccc45)cs3)c2)CCc2cccnc21 (single isomer, unassigned)" test_system="recombinant human NF-kappaB-inducing kinase (NIK/MAP3K14) (Homo sapiens, UniProt Q99558)" parameter=IC50 measured="100 to 500 nM"

We next turn to a different compound, shown below.
Look up and report measured IC50 for this entry: O[C@H]1C[C@](O)(c2cccc(-c3csc(-c4c[nH]c5ncccc45)n3)c2)c2ncccc21 (single isomer, unassigned)
> 500 nM
